Origin of the recorded values: patent US9505742B2

test.target: human CYP11B2 (Homo sapiens)
Construct: The expression plasmids contains the ORF for either human/cyno CYP11B1 or CYP11B2
Sequence (P19099 25-503): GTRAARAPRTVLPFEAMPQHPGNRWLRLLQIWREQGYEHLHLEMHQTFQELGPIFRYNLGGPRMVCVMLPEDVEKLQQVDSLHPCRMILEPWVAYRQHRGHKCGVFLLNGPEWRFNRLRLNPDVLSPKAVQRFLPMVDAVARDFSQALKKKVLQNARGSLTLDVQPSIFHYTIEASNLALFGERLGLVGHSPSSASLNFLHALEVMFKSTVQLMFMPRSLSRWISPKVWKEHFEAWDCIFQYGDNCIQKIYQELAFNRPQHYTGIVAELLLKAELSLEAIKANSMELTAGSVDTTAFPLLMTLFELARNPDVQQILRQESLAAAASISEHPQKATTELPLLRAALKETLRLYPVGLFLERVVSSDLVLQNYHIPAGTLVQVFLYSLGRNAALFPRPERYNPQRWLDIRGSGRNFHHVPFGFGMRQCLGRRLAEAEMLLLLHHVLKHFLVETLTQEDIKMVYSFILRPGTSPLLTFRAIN
assay.method.text: G-402 cellular enzyme assay, human CYP11B2 (aldosterone release, HTRF)
cond: G-402 cells expressing human CYP11B2; 1 μM Deoxycorticosterone
assay.endpoint: EC50 (nM)

CC1(C)c2cc(Cl)ccc2C(=O)N1c1cncc(C2(F)CCN(S(=O)(=O)C3CC3)CC2)c1 [Example 38]
1

A. Cc1ccncc1C(=O)N1CCC(c2cncc(N3C(=O)c4ccc(Cl)cc4C3(C)C)c2)CC1 [Example 18]
B. CCC(=O)N1CCC(c2cncc(N3C(=O)c4ccc(Cl)cc4C3(C)C)c2)CC1 [Example 1]
C. CC1(C)c2cc(Cl)ccc2C(=O)N1c1cncc(C2CCN(C(=O)c3ncccc3Cl)CC2)c1 [Example 20]
D. CC1(C)c2cc(Cl)ccc2C(=O)N1c1cncc(C2CCN(S(=O)(=O)C3CC3)CC2)c1 [Example 17]
List from greatest to least EC50. Output spec: labels arranged per the requested ranking. A, C, B, D

1. CC1(C)c2cc(Cl)ccc2C(=O)N1c1cncc(C2CCN(C(=O)c3ccncc3Cl)CC2)c1 [Example 19]
2. CCS(=O)(=O)N1CC(c2cncc(N3C(=O)c4ccc(Cl)cc4C3(C)C)c2)C1 [Example 32]
Which one would you say has the larger EC50 value: 1 , or 2 ? Refer to your chosen item by its label in the answer. 1
(1: 21 nM, 2: 7 nM)

----------
test.target: human CYP11B1 (Homo sapiens, UniProt P15538)
Construct: The expression plasmids contains the ORF for either human/cyno CYP11B1 or CYP11B2
Sequence (P15538 25-503): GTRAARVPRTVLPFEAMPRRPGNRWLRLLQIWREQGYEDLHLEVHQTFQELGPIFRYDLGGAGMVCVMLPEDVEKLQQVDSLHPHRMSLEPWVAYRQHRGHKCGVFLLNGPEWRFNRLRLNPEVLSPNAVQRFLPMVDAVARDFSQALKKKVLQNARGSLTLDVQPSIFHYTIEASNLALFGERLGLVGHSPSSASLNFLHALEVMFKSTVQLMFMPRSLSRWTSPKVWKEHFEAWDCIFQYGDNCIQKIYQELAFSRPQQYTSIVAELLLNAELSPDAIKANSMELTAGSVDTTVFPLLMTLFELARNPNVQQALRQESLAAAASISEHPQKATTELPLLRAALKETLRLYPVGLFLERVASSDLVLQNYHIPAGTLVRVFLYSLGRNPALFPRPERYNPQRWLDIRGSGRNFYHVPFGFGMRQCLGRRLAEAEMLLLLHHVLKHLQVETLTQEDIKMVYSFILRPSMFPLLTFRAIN
assay.method.text: G-402 cellular enzyme assay, human CYP11B1 (cortisol release, HTRF)
cond: G-402 cells expressing human CYP11B1; 1 μM Deoxycortisol
assay.endpoint: EC50 (nM)

a. CCCS(=O)(=O)N1CCC(F)(c2cncc(N3C(=O)c4ccc(Cl)cc4C3(C)C)c2)CC1 [Example 37]
b. CCCS(=O)(=O)N1CC(c2cncc(N3C(=O)c4ccc(Cl)cc4C3(C)C)c2)C1 [Example 34]
c. CC(C)S(=O)(=O)N1CCC(c2cncc(N3Cc4cc(Cl)ccc4C3=O)c2)CC1 [Example 22]
d. CC1(C)c2cc(Cl)ccc2C(=O)N1c1cncc(C2CCN(S(=O)(=O)C3CC3)C2)c1 (single isomer, unassigned; (-)) [Example 13]
Arrange these 4 compounds in increasing order of EC50. The labels, placed in the requested order, form the answer. a, b, d, c
(a: 98 nM, b: 492 nM, d: 957 nM, c: 7340 nM)
